# System: MDCK cells
# Assay notes: Compound cytotoxicity by MTS dye reduction
# Study conditions: MDCK; listed as Influenza B (B/Brisbane/60/2008)
Observable: CC50

Prompt line: For the molecule shown here, CCC(CC)COC(=O)[C@H](C)N[P@](=O)(OC[C@H]1O[C@@](C#N)(c2ccc3c(N)ncnn23)[C@H](O)[C@@H]1O)Oc1ccccc1 [RDV, Remdesivir] , give the reported CC50.
Response line: > 100 µM

###

# Test system: H1 HeLa cells
# Assay notes: Compound cytotoxicity by MTS dye reduction
# Study conditions: H1 HeLa; listed as Rhinovirus 14
Observable: CC50

Prompt line: Quick check: CC50 on H1 HeLa cells, item CCC(CC)COC(=O)[C@H](C)N[P@](=O)(OC[C@H]1O[C@@](C#N)(c2ccc3c(N)ncnn23)[C@H](O)[C@@H]1O)Oc1ccccc1 ?
Response line: > 10 µM
